System: PA (FluA)
Format: binding, influenza A virus
Assay Readout: IC50 (nM)
Number in nM, nothing else.

Exercise: Let me know recorded IC50 for MDVNPYLLFLKVPAQ [PB11-15AT6Y] , thanks.
Key: 21.6

Exercise: Let me know recorded IC50 for MDVNPFLLFLKVPAQ [PB11-15AT6F] , thanks.
Key: 2.84

Exercise: Let me know recorded IC50 for MDVNPWLLFLKVPAQ [PB11-15AT6W] , thanks.
Key: 3.4

Exercise: Let me know recorded IC50 for MDVNPCLLFLKVPAQ [PB11-15AT6C, -----C---------] , thanks.
Key: 43.6

Exercise: Let me know recorded IC50 for MDVNPYFLFLKVPAQ [PB11-15AT6Y,L7F] , thanks.
Key: 7.51
